Entries and their CC50
# System: Vero cells
# recorded_conditions: African green monkey
API: value field is a number in µM; no unit string.

Below, each entry is followed by its recorded CC50 result.
> print(dat)
                                   molecule      target  unit.text  test.result
1  COc1cc(NC(C(=O)c2c[nH]c3cc(OC)c(C)c(F)c23)c2ccc(Cl)cc2OC)cc(OCCO)c1 (single isomer, unassigned) [Compound 12B]  Vero cells         µM          4.6
2  COc1cc(NC(C(=O)c2c[nH]c3cc(OC)c(Cl)cc23)c2ccc(F)cc2OC)cc(OCCO)c1 (single isomer, unassigned) [Compound 2A]  Vero cells         µM          4.5

[ask] Reported CC50 for [2H]C(Nc1cc(OC)cc(OCCO)c1)(C(=O)c1c[nH]c2cc(OC)c(C)cc12)c1ccc(Cl)cc1OC (single isomer, unassigned) [Compound 14B-D] : what is it?
[reply] 6
